- Target or test system: c-KIT (Homo sapiens, UniProt P10721)
- Sequence (P10721 26-976): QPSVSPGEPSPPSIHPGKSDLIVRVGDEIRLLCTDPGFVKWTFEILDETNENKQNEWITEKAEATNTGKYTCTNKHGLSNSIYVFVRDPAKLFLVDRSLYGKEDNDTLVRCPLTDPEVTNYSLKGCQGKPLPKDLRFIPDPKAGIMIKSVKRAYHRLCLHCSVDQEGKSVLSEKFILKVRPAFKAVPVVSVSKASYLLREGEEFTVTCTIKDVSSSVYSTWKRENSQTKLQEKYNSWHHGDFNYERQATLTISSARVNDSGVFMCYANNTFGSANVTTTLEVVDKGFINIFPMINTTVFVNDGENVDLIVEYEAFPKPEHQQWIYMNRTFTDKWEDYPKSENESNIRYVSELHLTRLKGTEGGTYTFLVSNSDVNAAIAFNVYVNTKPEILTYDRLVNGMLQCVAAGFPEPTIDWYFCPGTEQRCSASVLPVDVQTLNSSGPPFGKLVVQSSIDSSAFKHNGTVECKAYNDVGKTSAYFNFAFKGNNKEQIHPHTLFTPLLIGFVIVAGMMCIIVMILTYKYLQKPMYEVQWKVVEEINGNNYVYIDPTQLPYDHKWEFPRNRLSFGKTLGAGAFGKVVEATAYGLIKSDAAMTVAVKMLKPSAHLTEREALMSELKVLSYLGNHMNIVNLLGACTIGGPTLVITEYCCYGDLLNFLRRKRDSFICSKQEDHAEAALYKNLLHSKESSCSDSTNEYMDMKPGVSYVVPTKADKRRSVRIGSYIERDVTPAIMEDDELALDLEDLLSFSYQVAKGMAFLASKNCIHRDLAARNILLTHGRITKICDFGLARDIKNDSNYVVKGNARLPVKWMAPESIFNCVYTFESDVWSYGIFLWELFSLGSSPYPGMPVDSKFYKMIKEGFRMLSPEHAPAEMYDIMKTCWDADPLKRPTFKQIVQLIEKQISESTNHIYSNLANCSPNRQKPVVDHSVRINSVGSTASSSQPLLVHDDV
Measured endpoint: pIC50
Please express pIC50 as -log10 of the molar concentration.

# return pIC50 for "CCc1nc(C(N)=O)c(Nc2ccc(N3CCC(N4CCN(C)CC4)CC3)c(OC)c2)nc1NC1CCOCC1" , test system: c-KIT (Homo sapiens, UniProt P10721) 6.64

====

- Procedure details: Pharmacokinetics in MV4–11 xenografted nude mice (plasma and tumor)
- Assay type: in vivo
- Details: nude, mouse; tumor; single oral 10 mg/kg; read-out: Cmax, intratumor concentration
Measured endpoint: Cmax (ng/g)
Report the figure in ng/g without appending any unit label.

Given the compound "CCc1nc(C(N)=O)c(Nc2ccc(N3CCC(N4CCN(C)CC4)CC3)c(OC)c2)nc1NC1CCOCC1" , write its reported Cmax. 1120
